Assay target: ENL YEATS domain (AviSUMO-ENL YEATS) (Homo sapiens, UniProt Q03111)
Construct: encoding ENL YEATS (aa 1−148) was cloned in pET28a-; made in house; host or cells: E. coli BL21(DE3pLysS), co-expressed with BirA (pBirAcm)
Sequence (Q03111 1-148): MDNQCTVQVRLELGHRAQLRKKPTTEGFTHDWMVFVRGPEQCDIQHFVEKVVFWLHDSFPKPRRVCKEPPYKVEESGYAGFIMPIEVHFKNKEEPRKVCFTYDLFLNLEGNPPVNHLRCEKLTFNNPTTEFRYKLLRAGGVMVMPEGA
Protocol details: Phage panning of BuK-containing 7-mer library against AviSUMO-ENL YEATS with Illumina NGS abundance
Condition label: sheet ENLR3: round 3 of panning against ENL YEATS; TAG = amber codon (BuK); 7-mer library positions V1-V7
Readout: n (number of NGS reads of the unique amino acid sequence)

Substance	Test value
TAGWIIETAGG	6
HLTLFTAGV	4
LLAFLWL	1
HSIYCYTAG	1
LNAEFTAGA	1
CWVCLPH	1
TAIFCYTAG	3
WWVFDATAG	10
YDFYCYTAG	51
FTWSTAGED	1
LYGSTAGDC	1
IGSIHYTAG	1
CWGFEKTAG	1
YDAYCYTAG	11
RWIIETAGG	7
HLTFFTAGG	3
QCGPWTAGD	4
CYDLCTAGG	21
YEVYCYTAG	2
QCGQRTAGD	10
